Record form. Attribute: GI50. Fill in for each entry.
System: CAKI-1 renal
Experiment: NCI tumour cell line growth inhibition, 48 h

Query: Given the molecule O=C(Nc1ccc(-c2ccccc2)cc1)C1CCN(S(=O)(=O)c2ccccc2Cl)CC1 , what is its reported GI50?
Reply: 53 µM

Query: Given the molecule Oc1cn(-c2ccc(Cl)cc2)nc1-c1n[nH]c(=S)n1C1CCCCC1 , what is its reported GI50?
Reply: 0.389 µM

Query: Given the molecule O=[N+]([O-])c1ccc2c(c1)C(c1ccccc1Cl)=Nc1cn[nH]c1N2 , what is its reported GI50?
Reply: 12.7 µM

Query: Given the molecule O=C(Nc1ccc(-n2cc(-c3ccncc3)c(-c3ccc(Cl)c(O)c3)n2)cc1)Nc1ccc(Cl)c(C(F)(F)F)c1 , what is its reported GI50?
Reply: 3.01 µM

Query: Given the molecule COc1cccc(/C(COc2ccc3c(c2)oc(=O)c2cc(OC)ccc23)=N/O)c1 , what is its reported GI50?
Reply: 6.7 µM
